- measured-on: Triple specificity protein phosphatase PtpB (Mycobacterium tuberculosis (strain ATCC 25618 / H37Rv))
- Sequence (I6WXK4 whole entry): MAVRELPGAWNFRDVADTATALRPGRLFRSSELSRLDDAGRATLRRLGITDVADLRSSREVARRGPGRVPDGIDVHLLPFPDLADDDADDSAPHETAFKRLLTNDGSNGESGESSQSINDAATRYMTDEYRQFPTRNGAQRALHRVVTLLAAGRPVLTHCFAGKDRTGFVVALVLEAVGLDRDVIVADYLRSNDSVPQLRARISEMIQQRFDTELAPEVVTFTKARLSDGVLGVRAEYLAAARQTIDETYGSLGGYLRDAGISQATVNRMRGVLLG
- assay-method-text: Inhibition of Mycobacterium tuberculosis H37Rv ptpB expressed in Escherichia coli BL21(DE3) using pNPP as substrate preincubated for 10 mins followed by substrate addition and measured for 5 mins by spectrophotometer analysis
pIC50: −log10 of the molar value.
# pIC50 >= 6 gives rule met, anything below gives rule not met

Is pIC50 for `CCCC[C@@H](C(=O)O)N1C(=O)/C(=C/c2ccc(-c3ccc(OC)cc3)cc2)SC1=S` at or above 6?
rule met

Is pIC50 for `CCCC[C@@H](C(=O)O)N1C(=O)/C(=C/c2ccc(-c3cccc(C(F)(F)F)c3)c3ccccc23)SC1=S` at or above 6?
rule met

Is pIC50 for `CCCC[C@@H](C(=O)O)N1C(=O)/C(=C/c2ccc(-c3cccc(C(F)(F)F)c3)c(Cl)c2)SC1=S` at or above 6?
rule met

Is pIC50 for `O=C(O)[C@H](c1ccccc1)N1C(=O)/C(=C/c2ccc(-c3ccc(F)c(C(F)(F)F)c3)cc2)SC1=S` at or above 6?
rule not met

Is pIC50 for `O=C(O)[C@H](C1CCCCC1)N1C(=O)/C(=C/c2ccc(-c3ccc(F)c(C(F)(F)F)c3)cc2)SC1=S` at or above 6?
rule met

Is pIC50 for `O=C(O)[C@H](C1CCCCC1)N1C(=O)/C(=C/c2ccc(-c3cccc(C(F)(F)F)c3)cc2)SC1=S` at or above 6?
rule met

Is pIC50 for `CCCC[C@@H](C(=O)O)N1C(=O)/C(=C/c2ccc(-c3ccc(Cl)cc3)cc2)SC1=S` at or above 6?
rule met

Is pIC50 for `CCCC[C@@H](C(=O)O)N1C(=O)/C(=C/c2ccc(-c3cccc(Cl)c3)s2)SC1=S` at or above 6?
rule met

Is pIC50 for `O=C(O)CN1C(=O)/C(=C/c2ccc(-c3ccc(F)c(C(F)(F)F)c3)cc2)SC1=S` at or above 6?
rule not met
